The origin of these recorded values is patent US20140004128A1.

molecular target: recombinant Rhesus Macaque IL-18 (Rhesus Macaque, UniProt Q9BGI5 37-193); assay: cell-based or functional assay
MEASURE_NAME: IC50, IFNγ release KG-1 cell assay, Rhesus Macaque IL-18

INSERT INTO assay_data (binder, recorded_measurement) VALUES
  ('Antibody 11 IgG2 (antibody, V domains shown) VH: QVQLQQSGPRLVEPSQTLSLTCTVSGGSISADGYYWSWIRQPAGKGLEWIGSLYYSGSTYYNPSLRGRVTISGDTPKNQFSLKLSSVTAADTAVYYCARTPAYFGQDRTDFFDVWGRGTLVTVSS VL: DIVMTQSPSTLSASVGDRVTITCRASQGISSWLAWYQQKPGGAPKVLIYKASTLESGVPSRFSGSGSGTDFTLTISSLQPEDFATYYCQQSHHPPWTFSQGTKLEIK', '444 pM'),
  ('Antibody 5 IgG2 (antibody, V domains shown) VH: QVQLQQSGPRLVKPSQTLSLTCTVSGGSISSGGYYWSWIRQPAGKGLEWIGSIYYSGSTYYNPSLKSRVTISGDTPKNQFSLKLSSVTAADTAVYYCARTPAYDGDARADFFDVWGRGTLVTVSS VL: DIVMTQSPSTLSASVGDRVTITCRASQGISSWLAWYQQKPGRAPKVLIYKASTLESGVPSRFSGSGSGTDFTLTISSLQPEDFATYYCQQSLIPQWDFGQGTKLEIK', '30000 pM');

Please look at the following binder next.
Ask: May I ask what IC50, IFNγ release KG-1 cell assay, Rhesus Macaque IL-18 has been recorded for Antibody 9 IgG2 (antibody, V domains shown) VH: QVQLQQSGPRLVEPSQTLSLTCTVSGGSISSDGYYWSWIRQPAGKGLEWIGSIYYSGSTYYNPSLKSRVTISGDTPKNQFSLKLSSVTAADTAVYYCARTPAYFGQDRTDFFDVWGRGTLVTVSS VL: DIVMTQSPSTLSASVGDRVTITCRASQGISSWLAWYQQKPGRAPKVLIYKASTLESGVPSRFSGSGSGTDFTLTISSLQPEDFATYYCQQSHHPPWTFGQGTKLEIK ?
Reply: 212 pM
